Cited source for all entries: paper PMC10249623

assay-procedure: Air/water partition coefficient via hexadecane/air/water thermodynamic cycle (eq 1)
Assay type: physicochemical
experimental-parameters: 25 °C; KHxd/w divided by KHxd/air
property-measured: log Kaw eq 1

{"columns": ["molecule", "result"],
 "data": [
  ["C=C(C)C(=O)OCCC(F)(F)C(F)(F)C(F)(F)C(F)(F)F [4:2 FTMAC, 1H,1H,2H,2H-perfluorohexyl methacrylate]", 0.62],
  ["NS(=O)(=O)C(F)(F)C(F)(F)C(F)(F)C(F)(F)C(F)(F)C(F)(F)F [PFHxSA, perfluorohexane sulfonamide]", "–3.94"],
  ["NS(=O)(=O)C(F)(F)C(F)(F)C(F)(F)C(F)(F)F [PFBSA, perfluorobutane sulfonamide]", "–4.89"],
  ["FC(F)C(F)(F)C(F)(F)C(F)(F)C(F)(F)C(F)(F)CI [6:1 FTI-7H, 1H,1H,7H-perfluoroheptyl iodide]", 0.70],
  ["CCNS(=O)(=O)C(F)(F)C(F)(F)C(F)(F)C(F)(F)C(F)(F)C(F)(F)F [EtFHxSA, N-ethyl perfluorohexane sulfonamide]", "–1.58"],
  ["FC(F)(F)C(F)(F)C(F)(F)C(F)(F)CCI [4:2 FTI, 1H,1H,2H,2H-perfluorohexyl iodide]", 1.60],
  ["CN(CCO)S(=O)(=O)C(F)(F)C(F)(F)C(F)(F)C(F)(F)F", "–4.35"],
  ["OCCC(F)(F)C(F)(F)C(F)(F)C(F)(F)C(F)(F)C(F)(F)C(F)(F)C(F)(F)F", 0.11],
  ["CNS(=O)(=O)C(F)(F)C(F)(F)C(F)(F)C(F)(F)C(F)(F)C(F)(F)F [MeFHxSA, N-methyl perfluorohexane sulfonamide]", "–2.01"],
  ["OCCC(F)(F)C(F)(F)C(F)(F)C(F)(F)F", "–1.57"],
  ["OCC(F)(F)C(F)(F)C(F)(F)C(F)(F)C(F)(F)C(F)(F)C(F)(F)F", "–0.26"]
]}
